Experimental details: qHTS assay to identify small molecule agonists of the sonic hedgehog signaling (Shh) pathway (AID 1259368);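 further: NIH/3T3-derived 3T3Gli1-Luc cells carrying a stable Gli1-driven firefly luciferase reporter; nearly all actives have a fitted effect of over 15% in size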
Details: NIH/3T3 Gli1-Luc reporter, luciferase, 24 h; series mostly up to 92.4 µM
Active and inactive are the calls of the source. The call rests on the fitted dose curve.
Quantity name: activity change

Solved entries (count: 4):
[[record]]
compound = "O=C([O-])c1ccccn1.O=C([O-])c1ccccn1.O=C([O-])c1ccccn1.[Cr+3]"
quantity_name = "activity change"
observed_value = "inactive"

[[record]]
compound = "Cc1nnc(-c2ccccc2)c(=O)n1N"
quantity_name = "activity change"
observed_value = "inactive"

[[record]]
compound = "CCCCC(CC)COC(=O)c1c(Br)c(Br)c(Br)c(Br)c1C(=O)OCC(CC)CCCC (stereo not drawn)"
quantity_name = "activity change"
observed_value = "inactive"

[[record]]
compound = "c1ccc2c(c1)-c1cccc3cccc-2c13"
quantity_name = "activity change"
observed_value = "inactive"


Dear colleague, could you please provide activity change for the compounds listed below?
1. O=C(Cc1ccccc1)c1ccccc1
2. COc1ccc(C(=O)c2c(C)n(CCN3CCOCC3)c3ccccc23)cc1
3. O=[N+]([O-])c1cc(Cl)c(Cl)cc1Cl
4. C=CCOC(=O)C(C)(C)OC(=O)c1cc(-n2c(=O)cc(C(F)(F)F)n(C)c2=O)ccc1Cl
5. O=C1NC(=O)C(=O)C(=O)N1
6. O=S(=O)(Cl)Cl
7. CCCCC#N
8. CCC1CCC(=O)O1 (stereo not drawn)

["inactive", "inactive", "inactive", "inactive", "inactive", "inactive", "inactive", "inactive"]

Would you mind telling me what activity change value was observed for `COC1=CC(=O)O[C@@H](/C=C/c2ccc3c(c2)OCO3)C1` ?
inactive

###

Experimental details: qHTS assay to identify small molecule antagonists of the thyroid receptor (TR) signaling pathway - cell viability counter screen (AID 743064); further: nearly all actives have a fitted effect of over 50% in size
Details: GH3.TRE-Luc viability, CellTiter-Fluor, 24 h; series mostly up to 70.3 µM
Records with an inconclusive call do not appear. Activity calls are given as the source filed them. Calls follow the shape of the dose curve; as a rule, active = well fitted cell-killing curve with a large enough effect in the repeat runs; inconclusive = weak or mixed curves, or effect the other way; inactive = no such curve, though single readings can be large or run the other way.
// allowed return values: true = active, false = inactive

Examples with answers:
[[record]]
compound = "CN(C)C(=O)Nc1cccc(OC(=O)NC(C)(C)C)c1"
class = "false"

[[record]]
compound = "C[C@]12C=CC3=C4CCC(=O)C=C4CC[C@H]3[C@@H]1CC[C@@H]2O"
class = "false"


Give the logged outcome of this assay for the following compound: `C1CS1`
false

Same lookup for `CCCBr` , please.
false

Try `Oc1cccc(Cl)c1` next.
false

Please do the same for `O=C(O)CCCOc1ccc(Cl)cc1Cl` as well.
false

Try this compound too: `CCCCC#N`
false

###

Experimental details: qHTS assay to identify small molecule antagonists of the androgen receptor (AR) signaling pathway using the MDA cell line in the presence of 0.5 nM R1881 - cell viability counter screen (AID 1259242); further: nearly all actives have a fitted effect of over 45% in size
Details: MDA-kb2 viability, CellTiter-Fluor protease fluorescence, 16 h; series mostly up to 92.4 µM
Results filed as inconclusive are left out. Active and inactive are the calls of the source. Calls come from the whole dose curve; as a rule, active = well fitted cell-killing curve with a large enough effect in the repeat runs; inconclusive = weak or mixed curves, or effect the other way; inactive = flat fitted curve, though single readings scatter.
Entry note: the call must match one of active, inactive

Study these solved cases before continuing.
[[record]]
molecule = "Nc1ccccc1C(=O)OCCc1ccccc1"
class = "inactive"

[[record]]
molecule = "C=C(Cl)Cl"
class = "inactive"

[[record]]
molecule = "Cc1nc(N(C)C)nc(OC(=O)N(C)C)c1C"
class = "inactive"

[[record]]
molecule = "Oc1cccc(Cl)c1"
class = "inactive"

[[record]]
molecule = "CCSCc1ccccc1OC(=O)NC"
class = "inactive"


# fetch the recorded call for CCCCC(CC)CO[N+](=O)[O-] (stereo not given) here
inactive

Cool, now `O=C(N[C@H]1CN2CCC1CC2)c1ccc2c(c1)OCCO2`
inactive

And then `CCOC(=O)c1cn2nc(OP(=S)(OCC)OCC)cc2nc1C` , what is it?
inactive

Where these numbers come from: PubChem BioAssay (Tox21)
